- ASSAY NAME: self-splicing fitness, log relative to wild type (ln ratio); higher = more splicing; Tetrahymena group I intron in knt gene, E. coli kanamycin selection, DiMSum; sequences stand for … in CUCUCU…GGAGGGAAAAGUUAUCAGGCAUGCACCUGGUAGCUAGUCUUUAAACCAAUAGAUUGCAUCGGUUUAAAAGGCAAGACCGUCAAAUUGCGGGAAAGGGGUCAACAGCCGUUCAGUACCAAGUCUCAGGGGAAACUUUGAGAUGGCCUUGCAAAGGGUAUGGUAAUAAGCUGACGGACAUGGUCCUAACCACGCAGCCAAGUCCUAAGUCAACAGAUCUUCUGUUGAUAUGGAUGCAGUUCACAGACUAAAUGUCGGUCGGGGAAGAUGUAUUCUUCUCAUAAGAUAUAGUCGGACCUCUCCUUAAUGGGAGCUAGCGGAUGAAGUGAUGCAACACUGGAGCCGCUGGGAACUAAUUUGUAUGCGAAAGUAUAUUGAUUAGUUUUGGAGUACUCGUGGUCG;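 also: selection with 25 µg/mL kanamycin versus none on LB agar overnight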
- CONDITIONS: 30 °C
ENDPOINT: self-splicing fitness (ln)
One number for each entry.

Example cases with answers are listed next.
CONSTRUCT SEQUENCE: GUUGAGCAAUAUUACGUUGG
self-splicing fitness (ln): -4.19
//
CONSTRUCT SEQUENCE: UUACAGCAAUAUUACGAUAA
self-splicing fitness (ln): -0.0512
//
CONSTRUCT SEQUENCE: GCCGAGCAAUAUUACGCGAG
self-splicing fitness (ln): -3.29
//
CONSTRUCT SEQUENCE: AAAAAGCAAUAUUACGUCUG
self-splicing fitness (ln): -0.785

Would you be so kind as to report self-splicing fitness (ln) for each listed record?
1. GUAAAGCAAUAUUACGGGUG
2. UCAAAGCAAUAUUACGUCAU
3. CCCAAGCAAUAUUACGGAGU

[-1.6, -2.36, -3.37]

Answer for every listed entry: what is its self-splicing fitness (ln)? The entries follow.
1. CGGAAGCAAUAUUACGAACU
2. CUUAAGCAAUAUUACGUACG
3. GCUUAGCAAUAUUACGAAGU
4. GAGUAGCAAUAUUACGCGUU

1. -1.04
2. -0.58
3. -3.26
4. -2.44

Take each entry in turn and give its self-splicing fitness (ln).
1. CUGGAGCAAUAUUACGUUAU
2. GAAGAGCAAUAUUACGCGUA
3. GCCGAGCAAUAUUACGACGC

[-4.35, -3.68, -2.86]
